These data points were gathered from the supplement of paper PMC6555819.

System: THRa homodimer (NR concentration 90 nM)
protocolNotes: PBM binding z-score (relative to random genomic background probes); higher = stronger binding; sequences stand for … in GC…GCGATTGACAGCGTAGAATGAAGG
Some sequences, each annotated with its measured PBM binding z-score.
Number only, please.

Consider the worked cases shown below.
| orderedResidues | experimentalTarget | measure | resultNumber |
| --- | --- | --- | --- |
| CGTTACGGGTCAAGGTTATAGCACGGGTGGTACG | THRa homodimer (NR concentration 90 nM) | PBM binding z-score | 0.918 |
| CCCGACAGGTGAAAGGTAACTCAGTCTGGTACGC | THRa homodimer (NR concentration 90 nM) | PBM binding z-score | 0.506 |
| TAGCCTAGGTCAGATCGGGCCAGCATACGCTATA | THRa homodimer (NR concentration 90 nM) | PBM binding z-score | 0.0653 |
| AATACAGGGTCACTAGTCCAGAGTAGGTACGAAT | THRa homodimer (NR concentration 90 nM) | PBM binding z-score | 1.32 |
| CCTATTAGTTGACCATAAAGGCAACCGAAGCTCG | THRa homodimer (NR concentration 90 nM) | PBM binding z-score | 0.543 |
| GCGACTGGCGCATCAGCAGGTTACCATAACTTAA | THRa homodimer (NR concentration 90 nM) | PBM binding z-score | -0.551 |
| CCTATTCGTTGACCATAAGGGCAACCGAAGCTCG | THRa homodimer (NR concentration 90 nM) | PBM binding z-score | 1.57 |
| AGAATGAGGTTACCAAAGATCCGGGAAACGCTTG | THRa homodimer (NR concentration 90 nM) | PBM binding z-score | 0.714 |
| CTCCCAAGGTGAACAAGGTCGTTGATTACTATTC | THRa homodimer (NR concentration 90 nM) | PBM binding z-score | 2.26 |
| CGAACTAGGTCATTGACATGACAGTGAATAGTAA | THRa homodimer (NR concentration 90 nM) | PBM binding z-score | 0.792 |

[in] Item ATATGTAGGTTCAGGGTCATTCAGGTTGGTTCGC has what recorded PBM binding z-score?
[out] 3.36

[in] Same question for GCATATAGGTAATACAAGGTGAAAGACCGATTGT please.
[out] 0.583

[in] Same question for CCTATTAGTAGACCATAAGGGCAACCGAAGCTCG please.
[out] 1.11

###

Tested on: PPARg:RXRa (NR concentration 180 nM, RXRa partner concentration 90 nM)
protocolNotes: PBM binding z-score (relative to random genomic background probes); higher = stronger binding; sequences stand for … in GC…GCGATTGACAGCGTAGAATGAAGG
Some sequences, each annotated with its measured PBM binding z-score.
Number only, please.

Consider the worked cases shown below.
| orderedResidues | PBM binding z-score |
| --- | --- |
| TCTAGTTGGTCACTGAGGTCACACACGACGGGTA | 3.24 |
| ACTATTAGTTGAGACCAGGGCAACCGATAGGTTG | 0.508 |
| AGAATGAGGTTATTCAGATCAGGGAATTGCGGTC | 1.58 |
| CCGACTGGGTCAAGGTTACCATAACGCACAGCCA | 6.25 |
| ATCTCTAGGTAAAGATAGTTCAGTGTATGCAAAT | 0.827 |

[in] Item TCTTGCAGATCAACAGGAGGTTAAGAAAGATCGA has what recorded PBM binding z-score?
[out] -0.141

[in] Same question for TAGCCTAGGTCATGCGTGCCAGTATAGTGTCGGC please.
[out] 2.33

[in] Same question for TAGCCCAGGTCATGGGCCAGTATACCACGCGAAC please.
[out] 3.87

[in] Same question for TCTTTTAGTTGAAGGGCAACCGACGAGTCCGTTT please.
[out] -0.118

[in] Same question for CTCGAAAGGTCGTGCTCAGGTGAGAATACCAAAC please.
[out] 2.81

[in] Same question for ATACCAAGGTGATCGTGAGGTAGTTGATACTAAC please.
[out] 0.267

###

Tested on: RARg homodimer (NR concentration 270 nM)
protocolNotes: PBM binding z-score (relative to random genomic background probes); higher = stronger binding; sequences stand for … in GC…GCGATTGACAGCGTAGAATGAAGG
Where PBM binding z-score equals or exceeds 2, the correct label is True; where it does not, the label is False.

| orderedResidues | experimentalTarget | classLabel |
| --- | --- | --- |
| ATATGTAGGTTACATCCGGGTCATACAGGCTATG | RARg homodimer (NR concentration 270 nM) | True |
| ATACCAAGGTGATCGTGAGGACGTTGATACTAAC | RARg homodimer (NR concentration 270 nM) | False |
| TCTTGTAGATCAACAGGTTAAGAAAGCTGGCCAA | RARg homodimer (NR concentration 270 nM) | False |
| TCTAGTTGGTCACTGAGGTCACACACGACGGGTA | RARg homodimer (NR concentration 270 nM) | True |
| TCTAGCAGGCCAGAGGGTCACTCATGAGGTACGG | RARg homodimer (NR concentration 270 nM) | True |
| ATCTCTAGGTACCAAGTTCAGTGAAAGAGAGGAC | RARg homodimer (NR concentration 270 nM) | False |
| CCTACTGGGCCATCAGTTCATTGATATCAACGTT | RARg homodimer (NR concentration 270 nM) | False |
| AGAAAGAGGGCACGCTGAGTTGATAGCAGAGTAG | RARg homodimer (NR concentration 270 nM) | True |

[in] Given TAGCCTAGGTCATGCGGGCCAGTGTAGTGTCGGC , state whether its PBM binding z-score is at least 2.
[out] True

[in] Same question for CTCGAAGGGTCGGTTGAGGTGAGTATACGGATAA please.
[out] False

[in] Same question for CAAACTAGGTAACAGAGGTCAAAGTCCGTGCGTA please.
[out] True

[in] Same question for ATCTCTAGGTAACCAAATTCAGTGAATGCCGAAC please.
[out] False

[in] Same question for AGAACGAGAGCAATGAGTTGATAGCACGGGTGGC please.
[out] False

###

Tested on: PPARg:RXRa IVT, anti-PPARg (NR concentration 270 nM, RXRa partner concentration 90 nM)
protocolNotes: PBM binding z-score (relative to random genomic background probes); higher = stronger binding; sequences stand for … in GC…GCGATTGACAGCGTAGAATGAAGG
Some sequences, each annotated with its measured PBM binding z-score.
Number only, please.

Consider the worked cases shown below.
| orderedResidues | PBM binding z-score |
| --- | --- |
| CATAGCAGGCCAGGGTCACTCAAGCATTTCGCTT | 2.14 |
| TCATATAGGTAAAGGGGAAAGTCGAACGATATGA | 2.85 |
| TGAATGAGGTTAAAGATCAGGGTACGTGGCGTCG | 3.93 |
| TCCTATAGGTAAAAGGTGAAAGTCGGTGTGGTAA | 3.95 |
| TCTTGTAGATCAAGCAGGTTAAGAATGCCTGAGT | 0.313 |

[in] Item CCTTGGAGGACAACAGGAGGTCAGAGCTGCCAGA has what recorded PBM binding z-score?
[out] 1.27

###

Some sequences, each annotated with its measured PBM binding z-score.
System: FXR:RXRa (NR concentration 270 nM, RXRa partner concentration 90 nM)
protocolNotes: PBM binding z-score (relative to random genomic background probes); higher = stronger binding; sequences stand for … in GC…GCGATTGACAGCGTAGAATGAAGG
Number only, please.

Consider the worked cases shown below.
| orderedResidues | measure | resultNumber |
| --- | --- | --- |
| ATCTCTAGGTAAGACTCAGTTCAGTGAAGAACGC | PBM binding z-score | 0.226 |
| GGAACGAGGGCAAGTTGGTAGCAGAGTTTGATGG | PBM binding z-score | 0.88 |
| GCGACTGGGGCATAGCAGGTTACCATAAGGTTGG | PBM binding z-score | 0.397 |
| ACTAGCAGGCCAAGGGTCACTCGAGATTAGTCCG | PBM binding z-score | 2.44 |
| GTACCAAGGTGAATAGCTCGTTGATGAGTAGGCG | PBM binding z-score | -0.0145 |
| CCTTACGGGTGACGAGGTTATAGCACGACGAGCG | PBM binding z-score | 0.791 |

[in] Find the measured PBM binding z-score: item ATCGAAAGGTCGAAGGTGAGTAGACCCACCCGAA , target or system FXR:RXRa (NR concentration 270 nM, RXRa partner concentration 90 nM).
[out] 4.66

[in] Same question for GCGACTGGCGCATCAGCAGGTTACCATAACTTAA please.
[out] -0.425

[in] Same question for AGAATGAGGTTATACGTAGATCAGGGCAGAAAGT please.
[out] 2.33
